So I've got GI50 readings for MV-4-11 cells, take a look.
Write the answer as a number in nM, unit excluded.

The following molecules have reported results that may help.
* COc1ncc(-n2nc3c(c2C(F)(F)F)C(c2ccc(Cl)cc2)N(c2cc(Cl)c(=O)n(C)c2)C3=O)c(OC)n1 (stereo not shown) | 113
* Cc1cc(N2C(=O)c3nn(C4CC4)c(C)c3C2c2ccc(Cl)cc2)cn2c(C)nnc12 (stereo not shown) | 13.5
* Cc1nn(C[C@H](O)C(F)(F)F)c2c1[C@@H](c1ccc(Cl)cc1)N(c1cc(C)c3nnc(C)n3c1)C2=O | 27.6

Query molecule follows.
Consider the molecule shown here: `Cc1c2c(nn1C1CC1)C(=O)N(c1cc(Cl)c(=O)n(C)c1)[C@@H]2c1ccc(Cl)cc1` What is its recorded GI50? 25.8
